molecular target: aTNF-Fab (Fab fragment of anti-human TNFα monoclonal IgG, generic name Infliximab, product name Remicade); assay: SPR Biacore 3000, aTNF-Fab amine-coupled on CM5, peptide flowed, 25 °C, pH 7.4, 1:1 fit
property_measured: koff (s⁻¹)

Examples with their reported koff follow.
{"binder": "GB1#-T17A.1d (designed binder) GPLGSTTYKLILNGKTLTGYTAAIAADAATAEIVLKQFANDNGIDGEWTYDDATKTFTVTE", "units": "s⁻¹", "koff": 0.0285}
{"binder": "GB1#-Cont.1d (designed binder) GPLGSTTYKLILNGKTLTGYTTAIAADAATAEIVLKQFANDNGIDGEWTYDDATKTFTVTE", "units": "s⁻¹", "koff": 0.017}

(I) GB1#-T17V.1d (designed binder) GPLGSTTYKLILNGKTLTGYTVAIAADAATAEIVLKQFANDNGIDGEWTYDDATKTFTVTE
(II) GB1#-D36V.1d (designed binder) GPLGSTTYKLILNGKTLTGYTTAIAADAATAEIVLKQFANVNGIDGEWTYDDATKTFTVTE
Lab notebook, comparison: I versus II , higher koff goes to which? To answer, give the label that identifies your chosen option.
II
